target desc: MAO-A (Homo sapiens)
Construct: gene MAOA; human recombinant enzyme
Sequence (P21397 whole entry): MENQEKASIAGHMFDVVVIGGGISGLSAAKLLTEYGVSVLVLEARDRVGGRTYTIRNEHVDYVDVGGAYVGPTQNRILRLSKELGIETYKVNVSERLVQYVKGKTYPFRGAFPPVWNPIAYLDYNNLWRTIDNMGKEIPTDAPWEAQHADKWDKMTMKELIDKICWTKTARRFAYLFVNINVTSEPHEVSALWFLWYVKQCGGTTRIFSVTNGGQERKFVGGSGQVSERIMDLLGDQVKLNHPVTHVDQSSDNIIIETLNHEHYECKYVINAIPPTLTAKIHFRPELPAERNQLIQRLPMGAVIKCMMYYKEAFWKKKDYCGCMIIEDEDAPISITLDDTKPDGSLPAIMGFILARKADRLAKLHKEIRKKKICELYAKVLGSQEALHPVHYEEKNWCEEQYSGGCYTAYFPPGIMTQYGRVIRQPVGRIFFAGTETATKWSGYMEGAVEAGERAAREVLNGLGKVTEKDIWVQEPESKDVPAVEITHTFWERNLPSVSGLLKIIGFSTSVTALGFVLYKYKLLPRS
procedure text: fluorescence, kynuramine to 4-hydroxyquinoline
Type: biochemical
Would you mind telling me the reported IC50 of each entry?
Answers are plain numbers, in µM.

Past entries and their recorded results:
1) OCCc1ccc(O[C@@H]2O[C@H](CO)[C@@H](O)[C@H](O)[C@H]2O)cc1 [compound 4, icariside D2] : 584
2) C[C@@H]1O[C@@H](O[C@H]2[C@H](Oc3c(-c4ccc(O)cc4)oc4cc(O)cc(O)c4c3=O)O[C@H](CO)[C@@H](O)[C@@H]2O)[C@H](O)[C@H](O)[C@H]1O [compound 3, kaempferol-3-neohesperidoside] : 109
3) O=c1c(O[C@@H]2O[C@H](CO)[C@H](O)[C@H](O)[C@H]2O)c(-c2ccc(O)cc2)oc2cc(O)cc(O)c12 : 578

// next entry
q: Value lookup for IC50; key = CC[C@H](CC[C@@H](C)[C@H]1CC[C@H]2[C@@H]3CC=C4C[C@@H](O)CC[C@]4(C)[C@H]3CC[C@]12C)C(C)C
a: 2.8
